# System: human PKK mRNA
# EXPERIMENT SUMMARY: Dose-dependent antisense inhibition of human PKK in HepaRG cells, 0.19-5.00 uM (Example 5)
# Assay type: cell-based
# SETUP CONDITIONS: Table 34; 1.67 μM, HepaRG, electroporation, ~16 h
Strand notation (5' to 3'): a small letter for the sugar, then the base; units joined by * are phosphorothioate-linked, units joined directly phosphodiester-linked; [ ] holds rarer units or linkages, { } end groups; capitals alone tell only the bases. e = 2'-O-(2-methoxyethyl) (MOE); [5mC] = 5-methylcytosine; d = 2'-deoxy (DNA)

SUBSTANCE	TGT	READOUT UNIT	percent inhibition of PKK at 1.67 μM
531231 (eT*eA*eT*e[5mC]*eA*d[5mC]*dT*dG*dT*dA*d[5mC]*dT*dA*dG*dT*eT*eT*e[5mC]*e[5mC]*eT) [compound 531231]	human PKK mRNA	%	73
546846 (e[5mC]*eT*eG*eT*e[5mC]*d[5mC]*dT*dA*dT*dA*dT*d[5mC]*dA*d[5mC]*dT*eG*eT*e[5mC]*e[5mC]*eT; antisense) [compound 546846]	human PKK mRNA	%	71
546825 (eG*eT*eA*eT*e[5mC]*dA*d[5mC]*dT*dG*dT*dA*d[5mC]*dT*dA*dG*eT*eT*eT*e[5mC]*e[5mC]; antisense) [compound 546825]	human PKK mRNA	%	86
546827 (e[5mC]*eA*eG*eT*eA*dT*d[5mC]*dA*d[5mC]*dT*dG*dT*dA*d[5mC]*dT*eA*eG*eT*eT*eT; antisense) [compound 546827]	human PKK mRNA	%	84

* * *

# Test system: human PKK mRNA
# EXPERIMENT SUMMARY: Antisense inhibition of human PKK mRNA in HepaRG cells, 1,000 nM, MOE/deoxy/cEt oligonucleotides (Example 3)
# Type: cell-based
# SETUP CONDITIONS: Table 28; HepaRG cells, 1,000 nM antisense oligonucleotide; human PKK mRNA
Strand notation (5' to 3'): a small letter for the sugar, then the base; units joined by * are phosphorothioate-linked, units joined directly phosphodiester-linked; [ ] holds rarer units or linkages, { } end groups; capitals alone tell only the bases. e = 2'-O-(2-methoxyethyl) (MOE); k = constrained ethyl (cEt); [5mC] = 5-methylcytosine; d = 2'-deoxy (DNA)
Each entry belongs to exactly one class, chosen by where its % inhibition falls: bottom range: < 10%; center range: ≥ 10% and < 50%; top range: ≥ 50%

> print(dat)
                                   substance    class.name
 1  548535 (antisense eG*eA*kG*dT*d[5mC]*dT*dT*dT*d[5mC]*d[5mC]*dA*dA*dT*k[5mC]*k[5mC]*eT) [compound 548535]  center range
 2  548482 (eG*eG*k[5mC]*dA*dG*dT*dT*dA*dG*dG*d[5mC]*d[5mC]*dA*kG*kG*eA; antisense) [compound 548482]     top range
 3  548518 (antisense e[5mC]*eA*k[5mC]*dA*d[5mC]*dT*dT*dA*d[5mC]*d[5mC]*d[5mC]*d[5mC]*dG*k[5mC]*kT*e[5mC]) [compound 548518]  center range
 4  548528 (antisense eT*eG*k[5mC]*dA*dG*dT*dG*dG*dT*d[5mC]*dA*dA*dG*k[5mC]*kA*eT) [compound 548528]  center range
 5  548469 (eT*eT*k[5mC]*d[5mC]*d[5mC]*dT*dA*d[5mC]*d[5mC]*d[5mC]*d[5mC]*dT*dG*kG*kT*eA; antisense) [compound 548469]  bottom range
 6  548499 (antisense eA*eT*kA*d[5mC]*d[5mC]*d[5mC]*dG*dG*dA*dG*dT*d[5mC]*dA*kG*kG*eA) [compound 548499]     top range
 7  548462 (eA*e[5mC]*k[5mC]*dT*dA*dT*dA*dT*d[5mC]*dA*d[5mC]*dT*dG*kT*kA*eA; antisense) [compound 548462]  bottom range
 8  548476 (eG*e[5mC]*kA*dA*dA*dT*d[5mC]*d[5mC]*dT*dT*d[5mC]*d[5mC]*dA*kG*k[5mC]*eA; antisense) [compound 548476]  center range
 9  548521 (antisense e[5mC]*eA*kG*d[5mC]*dT*d[5mC]*d[5mC]*d[5mC]*dT*dT*dA*d[5mC]*dT*kA*kG*eG) [compound 548521]     top range
10  548507 (antisense eA*eA*kA*d[5mC]*dT*d[5mC]*d[5mC]*dT*d[5mC]*dT*d[5mC]*dA*dA*kG*kG*e[5mC]) [compound 548507]     top range
11  548466 (e[5mC]*eG*kT*d[5mC]*dA*d[5mC]*dT*dG*dT*dA*d[5mC]*d[5mC]*dT*kA*kT*eA; antisense) [compound 548466]     top range
12  548459 (e[5mC]*eA*kA*d[5mC]*dT*dA*dT*dA*dA*d[5mC]*dA*dG*dT*kA*kT*e[5mC]; antisense) [compound 548459]  center range

* * *

// values below are reported % inhibition
# Test system: human PKK mRNA
# EXPERIMENT SUMMARY: Antisense inhibition of human PKK mRNA in HepaRG cells, 1,000 nM, MOE/deoxy/cEt oligonucleotides (Example 3)
# Assay type: cell-based
# SETUP CONDITIONS: Table 28; HepaRG cells, 1,000 nM antisense oligonucleotide; human PKK mRNA
Strand notation (5' to 3'): a small letter for the sugar, then the base; units joined by * are phosphorothioate-linked, units joined directly phosphodiester-linked; [ ] holds rarer units or linkages, { } end groups; capitals alone tell only the bases. e = 2'-O-(2-methoxyethyl) (MOE); k = constrained ethyl (cEt); [5mC] = 5-methylcytosine; d = 2'-deoxy (DNA)
ASSAY METRIC: % inhibition (%)

> print(dat)
                                   substance  readout.unit  result
 1  548515 (antisense eA*e[5mC]*k[5mC]*d[5mC]*dG*dT*d[5mC]*dA*dG*d[5mC]*d[5mC]*dT*d[5mC]*kA*kG*e[5mC]) [compound 548515]             %      59
 2  548478 (eG*eA*kG*d[5mC]*d[5mC]*dA*dT*d[5mC]*d[5mC]*dA*dG*dG*dG*kT*kG*e[5mC]; antisense) [compound 548478]             %      53
 3  548474 (eG*eA*kA*dG*dG*dT*dG*dT*dG*d[5mC]*dT*dG*dT*k[5mC]*kG*e[5mC]; antisense) [compound 548474]             %      33
 4  548463 (eT*e[5mC]*kA*d[5mC]*dT*dG*dT*dA*d[5mC]*d[5mC]*dT*dA*dT*kA*kT*e[5mC]; antisense) [compound 548463]             %       0
 5  548496 (antisense eA*e[5mC]*kT*dG*dA*dA*d[5mC]*d[5mC]*d[5mC]*d[5mC]*d[5mC]*dT*dT*kA*kG*eG) [compound 548496]             %       0
 6  548473 (e[5mC]*e[5mC]*kA*dA*d[5mC]*d[5mC]*dT*dT*d[5mC]*d[5mC]*d[5mC]*dA*dA*kT*k[5mC]*eT; antisense) [compound 548473]             %       0
 7  548533 (antisense eG*eA*kG*dG*dT*dG*dG*dT*dT*dG*dG*dA*dG*k[5mC]*kT*eA) [compound 548533]             %       9
 8  548503 (antisense e[5mC]*e[5mC]*kA*dT*d[5mC]*dT*dA*d[5mC]*dT*d[5mC]*d[5mC]*d[5mC]*d[5mC]*k[5mC]*kA*eT) [compound 548503]             %       9
 9  548497 (antisense e[5mC]*e[5mC]*kT*dT*d[5mC]*dA*dT*dA*d[5mC]*d[5mC]*d[5mC]*d[5mC]*dT*k[5mC]*kA*e[5mC]) [compound 548497]             %      26
10  548502 (antisense eA*eA*kT*dT*d[5mC]*dT*dT*dG*dG*dA*d[5mC]*d[5mC]*dA*kA*kG*eG) [compound 548502]             %      25
11  548527 (antisense eT*eG*kT*dT*dT*d[5mC]*dA*dA*dG*dT*dG*d[5mC]*d[5mC]*kA*kG*eA) [compound 548527]             %      50
12  548461 (e[5mC]*e[5mC]*kT*dA*dT*dA*dT*d[5mC]*dA*d[5mC]*dT*dG*dT*kA*kA*e[5mC]; antisense) [compound 548461]             %       0
13  548532 (antisense eT*eA*kT*dT*dT*dA*dT*d[5mC]*d[5mC]*dG*dA*d[5mC]*d[5mC]*kT*k[5mC]*eT) [compound 548532]             %      34
14  548491 (antisense eT*eG*kG*d[5mC]*d[5mC]*dA*dA*dG*d[5mC]*dA*dA*d[5mC]*d[5mC]*kA*kG*eT) [compound 548491]             %      57
15  548529 (antisense eG*e[5mC]*kG*dA*dT*dT*d[5mC]*d[5mC]*dT*dT*dG*d[5mC]*d[5mC]*kT*k[5mC]*eT) [compound 548529]             %      56
16  548519 (antisense e[5mC]*e[5mC]*kT*d[5mC]*d[5mC]*d[5mC]*d[5mC]*dT*dT*dG*dT*dG*dT*kG*kT*e[5mC]) [compound 548519]             %      31
17  548464 (eG*eT*k[5mC]*d[5mC]*dT*dA*dT*dA*dA*d[5mC]*dT*dA*dT*kA*kT*e[5mC]; antisense) [compound 548464]             %       0
18  548516 (antisense e[5mC]*eT*kT*dG*d[5mC]*d[5mC]*dT*dA*dT*dT*d[5mC]*dA*d[5mC]*k[5mC]*k[5mC]*e[5mC]) [compound 548516]             %      49
19  548534 (antisense e[5mC]*eA*kG*dA*dT*d[5mC]*d[5mC]*d[5mC]*dA*dA*dT*dT*d[5mC]*kT*kT*e[5mC]) [compound 548534]             %      22
20  548509 (antisense eT*eG*k[5mC]*dA*dG*dG*dG*d[5mC]*dT*dG*d[5mC]*dG*d[5mC]*kA*kG*eT) [compound 548509]             %      41
21  548475 (eA*eT*k[5mC]*dG*dA*dG*dT*d[5mC]*d[5mC]*dT*dG*d[5mC]*d[5mC]*kT*k[5mC]*e[5mC]; antisense) [compound 548475]             %      17
22  548483 (e[5mC]*eT*kA*d[5mC]*dA*dG*dA*dT*d[5mC]*dA*dT*d[5mC]*d[5mC]*k[5mC]*kT*eA; antisense) [compound 548483]             %       5
23  548465 (e[5mC]*eT*kG*dT*dA*d[5mC]*d[5mC]*dT*dA*dT*dA*dA*d[5mC]*kT*kG*eT; antisense) [compound 548465]             %       0
